- system: Cdk2(R122C) (C177A) (Homo sapiens, UniProt P24941, C177A/R122C)
- Construct: poly-histidine; made in house; host or cells: E. coli
- experiment-description: Kinetic thiol consumption assay with Cdk2 mutant R122C
- Format: binding
- Parameters: key: rate constant with Cdk2 ÷ rate constant with model thiol (fold)
- measurement-conditions: Cdk2 R122C, additional mutation C177A
reported-endpoint: Rate enhancement, Cdk2 R122C

Completed entries (count: 2):
> print(dat)
                                   compound                                    system             reported.endpoint  observed.value
1   C=CC(=O)N(Cc1ccco1)C12CC3CC(CC(C3)C1)C2  Cdk2(R122C) (C177A) (Homo sapiens, UniProt P24941, C177A/R122C)  Rate enhancement, Cdk2 R122C           0.376
2  C=CC(=O)NC1CC2CC1C1CCCC21 (stereo not drawn)  Cdk2(R122C) (C177A) (Homo sapiens, UniProt P24941, C177A/R122C)  Rate enhancement, Cdk2 R122C          0.2488

(I) C=CC(=O)N1CC2CCN(Cc3ccccc3)C2C1 (stereo not drawn)
(II) C=CC(=O)NCc1ccc(-c2ccccc2)cc1
(III) C=CC(=O)N1CC(Cc2ccccc2)C1
Query :: Order by Rate enhancement, Cdk2 R122C, ascending. Record the ranking as a list of labels in the requested order.
Result :: II, III, I

###

- system: human cyclin-dependent kinase 2 (Cdk2) (Homo sapiens)
- Construct: poly-histidine; made in house; host or cells: E. coli
- experiment-description: Kinetic thiol consumption assay with wild type Cdk2 (C177)
- Assay type: binding
- measurement-conditions: Protein: Cdk2; cysteine position WT; in h^-1
reported-endpoint: Rate constant with Cdk2 WT

Completed entries (count: 3):
> print(dat)
                                   molecule                                    system           reported.endpoint  observed.value
1  C=CC(=O)N1CCC2(CCCN(Cc3ccccc3)C2)C1 (centres unmarked)  human cyclin-dependent kinase 2 (Cdk2) (Homo sapiens)  Rate constant with Cdk2 WT        0.006933
2                 C=CC(=O)N1CCC2(CCCCCC2)C1  human cyclin-dependent kinase 2 (Cdk2) (Homo sapiens)  Rate constant with Cdk2 WT        0.003412
3    C=CC(=O)NCCc1c(-c2ccccn2)[nH]c2ccccc12  human cyclin-dependent kinase 2 (Cdk2) (Homo sapiens)  Rate constant with Cdk2 WT       0.0009768

(1) C=CC(=O)NC1(c2noc(C3CC3)n2)CCCC1
(2) C=CC(=O)N1CCN(C(=O)OC(C)(C)C)CC1
Query :: Kindly compare 1 with 2 and tell me which has the lower Rate constant with Cdk2 WT figure. Answer = label.
Result :: 1
(1: 0.002694, 2: 0.008917)

###

- system: human cyclin-dependent kinase 2 (Cdk2) (Homo sapiens)
- Construct: poly-histidine; made in house; host or cells: E. coli
- experiment-description: Kinetic thiol consumption assay with wild type Cdk2 (C177)
- Format: binding
- Set-up: key: k(Cdk2) divided by k(model thiol)
- measurement-conditions: Cdk2 WT, no additional mutations
reported-endpoint: Rate enhancement, Cdk2 WT

Completed entries (count: 5):
> print(dat)
                                   compound  observed.value
1  C=CC(=O)N1CCCC(C(=O)OCC)C1 (centres unmarked)          0.6935
2  C=CC(=O)N(C)C1C2CCOC2C1(C)C (centres unmarked)           1.268
3  C=CC(=O)NC1C[C@@H](C(=C)C)CC=C1C (some centres unmarked)          0.5934
4               O=C(CCl)NCCc1c[nH]c2ccccc12           6.167
5  C=CC(=O)NC1C2CC3CC(C2)CC1C3 (centres unmarked)          0.4066

(a) C=CS(=O)(=O)c1ccccc1
(b) C=CC(=O)N1CCc2cc(-c3cccc(F)c3)ccc21
Query :: Kindly compare a with b and tell me which has the lower Rate enhancement, Cdk2 WT figure. Answer = label.
Result :: a
(a: 1.608, b: 2.91)

The measured values listed here are drawn from patent US11415579B2.
